Test system: cytochrome P450 enzymes, such as lanosterol demethylase
assay notes: inhibition of cytochrome P450 enzymes (general statement)
Format: biochemical
test parameters: in words
property: inhibition of cytochrome P450 enzymes, such as lanosterol demethylase

C/C=C/C=C/C=C(\C)[C@@H]1OC[C@H](C)[C@H](OC)[C@H]1OC(=O)CN[C@@H]1O[C@H](CO)[C@@H](O)[C@H](O)[C@H]1O = inhibit
CCC/C=C/C=C/C=C(\C)[C@H]1OC[C@@H](C)[C@@H](OC)[C@@H]1OC(=O)CN (relative stereo) = inhibit
C/C=C/C=C/C=C(\C)[C@H]1OC[C@@H](C)[C@@H](OC)[C@@H]1OC(=O)CN (relative stereo) = inhibit
